- EXPERIMENTAL_PROTOCOL: small-molecule microarray binders of probe aNog, primary screen, biochemical, biotinylated probe, 635/667 nm fluorescence (AID 1115);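 also: probe is biotinylated aNog protein used at 0.15 µg/mL for 1 h at 4 C; z-score combines 667 nm fluorescence of each spot with its signal to noise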
- REPORTED_CONDITIONS: higher = more signal
Criterion: composite z-score meeting or surpassing -0.3. Met: Criterion met. Not met: Criterion not met.

The following compounds have reported results that may help.
Quick check: does O=C1C[C@@](C(=O)NCCN2CCOCC2)(c2ccc([N+](=O)[O-])cc2)[C@@H](c2ccc(CO)cc2I)N1C1CCCCC1 have composite z-score greater than or equal to -0.3?
Criterion met

Do the same for C=CC[C@]1(C(=O)O)COC(c2ccc(OCCCO)cc2)=N1 please
Criterion not met

Now give it for CC(C)OC(=O)C=C1C[C@@H](c2ccc(C(F)(F)F)cc2)O[C@@H](c2ccc(C(F)(F)F)cc2)O1 too.
Criterion met

Cool, now C=CCC(OC(C)=O)[C@@H]1[C@@H](N(Cc2cccc3ccccc23)C(=O)Cc2ccc(OC)cc2)c2cc(OCCCO)ccc2N1C(=O)c1ccc2ccccc2n1 (some centres undefined)
Criterion not met

Can you handle CC(=O)NCCCC[C@@H]1NC(=O)[C@@H]2C[C@H](C(=O)NCCCC[N+](C)(C)C)[C@H](c3ccc(O)cc3)N2C1=O next?
Criterion met

// next record O=C1N(Cc2ccccc2)Cc2ccccc2[C@@H]2OC(c3ccc(OCCCO)cc3)=N[C@]12CCS(=O)(=O)c1ccccc1
Criterion not met

More entries:
Tell me whether composite z-score is at least -0.3 here: COc1ccc([Si](C)(C)[C@@H]2[C@@H](CC(=O)N3Cc4ccccc4C[C@H]3CO)O[C@]3(C(=O)N(Cc4cccc(N5C(=O)c6cccc7cccc5c67)c4)c4ccccc43)[C@H]2C)cc1
Criterion met

Consider next the compound COC(=O)[C@@]1(Cc2ccc(F)cc2)[C@H]2c3cc(C(=O)N4CCCC4)n(CCc4ccc(O)c(O)c4)c3C[C@H]2CN1C(=O)c1ccccc1 in the same way.
Criterion met

Queued: C=C(COC)/C(=C/C[C@H](OC(C)=O)c1ccc(OCCO)cc1)c1cc(C(=O)OC)ccc1OC
Criterion met
